assay_system: T1, human serum albumin (human, UniProt P02768 25-609)
T1 construct: Immobilised by amine coupling on a C1 chip; also called HSA
T1 sequence (P02768 25-609 limits assumed): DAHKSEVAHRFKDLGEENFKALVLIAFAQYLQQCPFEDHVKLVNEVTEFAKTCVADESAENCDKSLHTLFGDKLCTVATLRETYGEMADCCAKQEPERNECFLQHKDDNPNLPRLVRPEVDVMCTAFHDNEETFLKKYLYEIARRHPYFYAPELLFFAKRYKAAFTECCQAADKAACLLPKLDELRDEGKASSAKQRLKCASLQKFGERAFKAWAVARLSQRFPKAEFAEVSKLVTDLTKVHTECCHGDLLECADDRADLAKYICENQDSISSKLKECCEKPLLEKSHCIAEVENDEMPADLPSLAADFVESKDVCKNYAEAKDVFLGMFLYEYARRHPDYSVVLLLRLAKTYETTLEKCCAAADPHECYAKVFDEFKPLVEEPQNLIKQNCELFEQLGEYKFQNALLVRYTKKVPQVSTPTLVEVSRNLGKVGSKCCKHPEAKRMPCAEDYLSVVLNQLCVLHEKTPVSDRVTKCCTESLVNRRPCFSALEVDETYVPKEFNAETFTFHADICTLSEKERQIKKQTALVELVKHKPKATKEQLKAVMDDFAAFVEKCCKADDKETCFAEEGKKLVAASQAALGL
assay_protocol: SPR Biacore 8K+, HSA amine-coupled on C1 chip, ISVD analyte, 1:1 fit
Please respond with fulfilled when measured koff is strictly beneath 0.001 s⁻¹, and with not fulfilled in all other cases.

| binder | group |
| --- | --- |
| T028501835 (VHH, K64A vs precursor T028501805; also called HSA006A06(K64A, K83R)) VHH: EVQLVESGGGVVQPGGSLRLSCAASGFTFRSFGMSWVRQAPGKGPEWVSSISGSGSDTLYADSVAGRFTISRDNSKNTLYLQMNSLRPEDTALYYCTIGGSLSRSSQGTLVTVSS | not fulfilled |
| T028501811 (VHH, K64Q vs precursor T028501805; also called HSA006A06(K64Q, K83R)) VHH: EVQLVESGGGVVQPGGSLRLSCAASGFTFRSFGMSWVRQAPGKGPEWVSSISGSGSDTLYADSVQGRFTISRDNSKNTLYLQMNSLRPEDTALYYCTIGGSLSRSSQGTLVTVSS | not fulfilled |
| T028501809 (VHH, K43A vs precursor T028501805; also called HSA006A06(K43A, K83R)) VHH: EVQLVESGGGVVQPGGSLRLSCAASGFTFRSFGMSWVRQAPGAGPEWVSSISGSGSDTLYADSVKGRFTISRDNSKNTLYLQMNSLRPEDTALYYCTIGGSLSRSSQGTLVTVSS | fulfilled |
| T028501810 (VHH, K64E vs precursor T028501805; also called HSA006A06(K64E,K83R)) VHH: EVQLVESGGGVVQPGGSLRLSCAASGFTFRSFGMSWVRQAPGKGPEWVSSISGSGSDTLYADSVEGRFTISRDNSKNTLYLQMNSLRPEDTALYYCTIGGSLSRSSQGTLVTVSS | not fulfilled |
| T028501814 (VHH, K75Q vs precursor T028501805; also called HSA006A06(K75Q, K83R)) VHH: EVQLVESGGGVVQPGGSLRLSCAASGFTFRSFGMSWVRQAPGKGPEWVSSISGSGSDTLYADSVKGRFTISRDNSQNTLYLQMNSLRPEDTALYYCTIGGSLSRSSQGTLVTVSS | not fulfilled |

Data provenance: patent US20250236673A1
